Biological target: Prostaglandin G/H synthase 2 (Mus musculus, UniProt Q05769)
Sequence (Q05769 whole entry): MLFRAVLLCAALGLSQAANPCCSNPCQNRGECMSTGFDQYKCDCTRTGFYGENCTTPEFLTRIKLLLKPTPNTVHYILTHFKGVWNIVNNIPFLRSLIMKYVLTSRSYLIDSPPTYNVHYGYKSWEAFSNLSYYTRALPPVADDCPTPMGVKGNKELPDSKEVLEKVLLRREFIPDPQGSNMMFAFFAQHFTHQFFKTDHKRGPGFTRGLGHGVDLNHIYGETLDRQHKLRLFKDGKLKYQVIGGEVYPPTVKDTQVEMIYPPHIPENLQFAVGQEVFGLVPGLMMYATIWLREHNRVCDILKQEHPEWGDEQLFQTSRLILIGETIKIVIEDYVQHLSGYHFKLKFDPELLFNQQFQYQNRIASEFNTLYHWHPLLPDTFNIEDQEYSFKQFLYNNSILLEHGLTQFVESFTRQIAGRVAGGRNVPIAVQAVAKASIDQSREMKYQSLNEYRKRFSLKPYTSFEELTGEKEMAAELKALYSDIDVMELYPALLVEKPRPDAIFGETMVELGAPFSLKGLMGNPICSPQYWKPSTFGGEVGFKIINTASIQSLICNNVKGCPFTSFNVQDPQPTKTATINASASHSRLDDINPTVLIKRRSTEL
Test: IC50 value against Prostaglandin G/H synthase 2 of murine J774A.1 cell line
OBSERVATION TYPE: IC50

Answered cases to consult:
SMILES TEXT: CCCSc1nnc(-c2cc(C(C)(C)C)c(O)c(C(C)(C)C)c2)o1
TARGET OR TEST SYSTEM: Prostaglandin G/H synthase 2 (Mus musculus, UniProt Q05769)
IC50: Not Active
//
SMILES TEXT: CC(C)Oc1nnc(-c2cc(C(C)(C)C)c(O)c(C(C)(C)C)c2)s1
TARGET OR TEST SYSTEM: Prostaglandin G/H synthase 2 (Mus musculus, UniProt Q05769)
IC50: Not Active
//
SMILES TEXT: CC(C)(C)c1cc(-c2nnc(SCCN)s2)cc(C(C)(C)C)c1O
TARGET OR TEST SYSTEM: Prostaglandin G/H synthase 2 (Mus musculus, UniProt Q05769)
IC50: Not Active
//
SMILES TEXT: CC(C)(C)c1cc(-c2nnc(NC#N)s2)cc(C(C)(C)C)c1O
TARGET OR TEST SYSTEM: Prostaglandin G/H synthase 2 (Mus musculus, UniProt Q05769)
IC50: Not Active
//
SMILES TEXT: CCCSc1nnc(-c2cc(C(C)(C)C)c(O)c(C(C)(C)C)c2)s1
TARGET OR TEST SYSTEM: Prostaglandin G/H synthase 2 (Mus musculus, UniProt Q05769)
IC50: Not Active

Asked: I'd like to know its IC50. The compound in question is CC(C)(C)c1cc(-c2nnc(SCC(F)(F)F)s2)cc(C(C)(C)C)c1O
Given back: Not Active

Asked: I'd like to know its IC50. The compound in question is CC(C)(C)c1cc(-c2nnc(SCCC(=O)O)s2)cc(C(C)(C)C)c1O
Given back: Not Active

Asked: I'd like to know its IC50. The compound in question is CCCOc1nnc(-c2cc(C(C)(C)C)c(O)c(C(C)(C)C)c2)s1
Given back: Not Active

Asked: I'd like to know its IC50. The compound in question is COC(=O)CCSc1nnc(-c2cc(C(C)(C)C)c(O)c(C(C)(C)C)c2)s1
Given back: Not Active
